// data source = paper PMC3269548

# study_system: GluN1/GluN2A NMDA receptor (Rattus norvegicus, UniProt P35439+Q00959)
# Sequence (Q00959 23-1464, other chains not shown): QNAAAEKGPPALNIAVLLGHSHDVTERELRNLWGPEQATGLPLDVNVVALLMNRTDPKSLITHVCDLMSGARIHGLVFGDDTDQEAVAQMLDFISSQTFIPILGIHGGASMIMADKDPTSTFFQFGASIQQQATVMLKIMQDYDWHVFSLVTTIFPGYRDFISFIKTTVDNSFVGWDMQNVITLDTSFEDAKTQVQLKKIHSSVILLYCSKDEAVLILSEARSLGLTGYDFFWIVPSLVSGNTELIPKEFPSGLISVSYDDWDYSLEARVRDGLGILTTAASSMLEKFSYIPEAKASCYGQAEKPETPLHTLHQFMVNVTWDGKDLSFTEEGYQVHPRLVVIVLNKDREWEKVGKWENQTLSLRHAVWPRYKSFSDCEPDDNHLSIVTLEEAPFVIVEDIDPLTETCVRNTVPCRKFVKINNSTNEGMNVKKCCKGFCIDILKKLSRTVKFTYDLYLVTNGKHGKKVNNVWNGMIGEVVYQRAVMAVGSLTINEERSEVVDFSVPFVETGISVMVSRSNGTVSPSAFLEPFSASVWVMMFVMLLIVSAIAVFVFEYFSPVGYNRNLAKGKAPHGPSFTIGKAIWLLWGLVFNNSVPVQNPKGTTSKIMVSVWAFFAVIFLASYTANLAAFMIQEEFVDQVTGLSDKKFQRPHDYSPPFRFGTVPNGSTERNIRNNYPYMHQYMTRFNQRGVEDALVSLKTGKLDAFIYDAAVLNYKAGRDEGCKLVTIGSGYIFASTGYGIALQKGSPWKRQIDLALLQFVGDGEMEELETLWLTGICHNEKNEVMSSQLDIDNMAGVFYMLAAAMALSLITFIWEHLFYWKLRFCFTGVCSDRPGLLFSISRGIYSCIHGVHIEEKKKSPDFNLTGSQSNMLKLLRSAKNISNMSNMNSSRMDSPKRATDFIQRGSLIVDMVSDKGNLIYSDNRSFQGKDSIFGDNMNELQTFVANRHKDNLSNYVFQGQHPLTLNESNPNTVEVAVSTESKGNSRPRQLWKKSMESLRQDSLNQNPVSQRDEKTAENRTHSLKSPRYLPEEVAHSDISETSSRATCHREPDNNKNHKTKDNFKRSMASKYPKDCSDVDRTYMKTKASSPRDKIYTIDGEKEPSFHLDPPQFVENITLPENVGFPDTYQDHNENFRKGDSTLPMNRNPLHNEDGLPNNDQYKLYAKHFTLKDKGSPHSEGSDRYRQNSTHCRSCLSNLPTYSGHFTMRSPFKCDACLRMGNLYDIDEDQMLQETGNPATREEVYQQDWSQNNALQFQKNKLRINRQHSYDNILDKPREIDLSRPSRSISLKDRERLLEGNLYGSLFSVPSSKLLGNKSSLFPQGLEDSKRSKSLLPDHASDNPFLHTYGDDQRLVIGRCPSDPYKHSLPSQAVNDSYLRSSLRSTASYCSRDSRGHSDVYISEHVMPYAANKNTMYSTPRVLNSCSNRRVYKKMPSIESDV
# Assay type: cell-based
# applied_conditions: 10 μM L-glutamate plus 10 μM glycine, ± s.e.m., n ≥ 4
parameter_measured: % Max. Inh. GluN1/GluN2A

Some compounds with known % Max. Inh. GluN1/GluN2A results, for comparison:
| compound | parameter_measured | measured_result |
| --- | --- | --- |
| O=C(O)c1cc2cc(Br)ccc2c(Br)c1O [UBP552, 1,6-Dibromo-2-hydroxy-3-naphthoic acid] | % Max. Inh. GluN1/GluN2A | 105.6 ± 4.3% |
| O=C(O)c1cc2cc(-c3ccccc3)ccc2c(I)c1O [UBP619] | % Max. Inh. GluN1/GluN2A | 78.8 ± 2.5^CHI % |

Working through the 2 compounds below one at a time, give % Max. Inh. GluN1/GluN2A for each.
1. O=C(O)c1cc(Br)c2ccc(Br)cc2c1 [UBP628, 1,6-Dibromo-3-naphthoic acid]
2. O=C(O)c1cc2cc(-c3ccccc3)ccc2cc1O [UBP617, 2-hydroxy-6-phenyl-3-naphthoic acid]

# output
104.3 ± 4.3%
71.5 ± 6.4C^c-iHI %

====

# study_system: GluN1/GluN2A NMDA receptor (Rattus norvegicus, UniProt P35439+Q00959)
# Type: cell-based
# applied_conditions: IC50 GluN1/GluN2A, 10 μM L-glutamate plus 10 μM glycine, −60 mV, ± s.e.m., n ≥ 4
parameter_measured: IC50 (µM)
Numbers only, in µM.

# input Look up IC50 with GluN1/GluN2A NMDA receptor (Rattus norvegicus, UniProt P35439+Q00959) for this compound: O=C(O)c1cc2cc(Br)ccc2c(Br)c1O [UBP552, 1,6-Dibromo-2-hydroxy-3-naphthoic acid]
# output 6.29
